Values compiled from PubChem BioAssay.

- Test system: PRMT1 (protein arginine N-methyltransferase 1)
- protocol summary: PRMT1 binders on small-molecule microarrays, primary screen, biochemical, small-molecule microarray, 635 nm fluorescence (AID 1088);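 also: binding of Prmt1 protein to compounds spotted on small-molecule microarray slides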
- setup conditions: small-molecule microarray binding, higher = more signal
Categorized via composite z-score: label 0 = under 0.3, label 1 = from 0.3 up to 1, label 2 = 1 and over

Which bin, given its composite z-score, does COC(=O)[C@@]1(Cc2ccccc2)[C@H]2c3cc(C(=O)N4CCCC4)n(Cc4cccc5ccccc45)c3C[C@H]2CN1C(=O)c1ccccc1 occupy? label 0

Which bin, given its composite z-score, does CCCCN1CC=CC23O[C@@H]4/C=C\CCC(C)OC(=O)C4[C@H]2C(=O)N(CCCCCO)[C@@H]3C1=O (some centres not stated) occupy? label 1

Which bin, given its composite z-score, does CCCCc1cn(C[C@H](Cc2ccccc2)NC(=O)N[C@H](CO)CCc2oc(C(C)=O)c(C(=O)OC)c2C(=O)OC)nn1 occupy? label 2

Which bin, given its composite z-score, does CC(C)C(=C=CC[C@@H](O)c1ccccc1OCCO)CCO occupy? label 1

Which bin, given its composite z-score, does COCCCNC(=O)[C@@]1(Cc2ccccc2)N=C(c2ccc(OCCCO)cc2)O[C@H]1c1ccccc1 occupy? label 2

Which bin, given its composite z-score, does COCC(=C=CC[C@H](O)c1ccccc1OCCO)C[C@H](O)c1cc(Cl)cc(Cl)c1O occupy? label 2

Which bin, given its composite z-score, does C=C/C=C/[C@H]1C(=C)CN([C@@H](Cc2ccccc2)C(=O)OC)[C@@H]1[C@H](O)Cc1ccccc1 occupy? label 0

Which bin, given its composite z-score, does CCOC(=O)C1=CCC(c2ccc(C)cc2)N(S(=O)(=O)c2ccc(C)cc2)C1 (configuration not stated) occupy? label 1

Which bin, given its composite z-score, does COC(=O)c1c(CC[C@@H](CO)NC(=O)N[C@H](Cn2cc(Cc3ccccc3)nn2)C(C)C)oc(C(C)=O)c1C(=O)OC occupy? label 2

Which bin, given its composite z-score, does C=CCNC(=O)[C@H]1[C@@H]2C(=O)O[C@@H](c3ccccc3)[C@@H](c3ccccc3)N2[C@@H](c2ccccc2OCCO)[C@]12C(=O)Nc1ccc(C#CC3=CCCCC3)cc12 occupy? label 2

Which bin, given its composite z-score, does O=C1O[C@H](c2ccccc2)[C@H](c2ccccc2)N2[C@H]1[C@@H](C(=O)O)[C@]1(C(=O)Nc3ccc(C#CCCO)cc31)[C@H]2c1ccc(O)cc1 occupy? label 0

Which bin, given its composite z-score, does CCCCN1CC=CC23O[C@@H]4C=CCOC(=O)[C@@H]4[C@H]2C(=O)N(CCCCCO)[C@@H]3C1=O (some centres not stated) occupy? label 0

Which bin, given its composite z-score, does CN(C)C(=O)[C@]1(Cc2ccccc2N=[N+]=[N-])N=C(c2ccc(OCCCO)cc2)O[C@@H]1c1ccccc1 occupy? label 2

Which bin, given its composite z-score, does CC(C)N1C(=O)[C@@]2(Cc3ccccc31)c1ccccc1C(=O)N(C1CCCCC1)[C@H]2c1ccc(CO)cc1 occupy? label 2

Which bin, given its composite z-score, does COCCOC(=O)N1C(=O)[C@@]2(c3cc(C#CC4=CCCCC4)ccc31)[C@H](c1ccc(O)cc1)N1[C@H](c3ccccc3)[C@H](c3ccccc3)OC(=O)[C@H]1[C@@H]2C(N)=O occupy? label 2

Which bin, given its composite z-score, does O=C1OCCC/C=C\[C@H]2OC34C=CCN(CCN5CCOCC5)C(=O)[C@H]3N(CCCO)C(=O)[C@@H]4C12 (some centres not stated) occupy? label 0

Which bin, given its composite z-score, does Cc1ccc(C(C)CC(O)C2C=CC3C(=O)N(c4ccccc4)C(=O)C3N2Nc2ccc([N+](=O)[O-])cc2)o1 (configuration not stated) occupy? label 2
